# target_desc: panel of 60 human kinases (Homo sapiens, UniProt P49760)
# Construct: purchased Reaction Biology Corp
# Sequence (P49760 whole entry): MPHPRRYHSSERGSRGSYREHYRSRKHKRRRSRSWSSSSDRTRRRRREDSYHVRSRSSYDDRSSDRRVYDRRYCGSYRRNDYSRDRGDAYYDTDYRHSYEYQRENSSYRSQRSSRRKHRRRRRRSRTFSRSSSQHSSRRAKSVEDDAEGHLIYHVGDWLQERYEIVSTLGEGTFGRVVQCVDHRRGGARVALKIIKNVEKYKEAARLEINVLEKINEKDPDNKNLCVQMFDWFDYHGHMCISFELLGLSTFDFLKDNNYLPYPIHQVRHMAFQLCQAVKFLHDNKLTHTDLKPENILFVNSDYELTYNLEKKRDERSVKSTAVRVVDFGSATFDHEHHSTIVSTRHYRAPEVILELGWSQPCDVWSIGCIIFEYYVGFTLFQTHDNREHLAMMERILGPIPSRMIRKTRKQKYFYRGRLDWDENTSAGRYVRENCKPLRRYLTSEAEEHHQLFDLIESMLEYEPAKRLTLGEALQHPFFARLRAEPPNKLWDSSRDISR
# assay_details: Radiolabeled ATP kinase assay, panel of 60 kinases (Table S5)
# Format: biochemical
# assay_conditions: CLK2; 0.1 μM; 10 μM ATP; read-out: % Enzyme Activity (relative to DSMO controls)
# Protocol: To better understand the biologically relevant targets of compound 1 and its analogs, a second round of cell-free kinase assays was performed. In this expanded assay, we selected ten analogs ranging from moderately to very strongly protective in the CPA assay. These analogs were evaluated for their ability to inhibit a selection of 60 kinases at 0.1 μM and 0.5 μM. […] RNAseq data were used to confirm the expression of each kinase in ES MNs (see Example 12). […]
# reported remaining activity at 0.1 µM; entries follow
Please state the figure in %; there is no need to write the unit.

Examples from the recorded data:
CN1CCN(Cc2ccc(-c3cnc4[nH]cc(-c5ccccc5Cl)c4c3)cc2)CC1 [Compound 7as]	22.5
CN1CCN(Cc2ccc(-c3cnc4[nH]cc(-c5cccc(Cl)c5)c4c3)cc2)CC1 [Compound 7ad]	79.8
CN1CCN(Cc2ccc(-c3cnc4[nH]cc(-c5ccc6[nH]ccc6c5)c4c3)cc2)CC1 [Compound 1, reference compound]	22.8
CN1CCN(Cc2ccc(-c3cnc4[nH]cc(-c5ccc6c(c5)OCCO6)c4c3)cc2)CC1 [Compound 7d]	2.71
CN1CCN(Cc2ccc(-c3cnc4[nH]cc(-c5ccoc5)c4c3)cc2)CC1 [Compound 7w]	59.2

IN: Indicate the recorded remaining activity at 0.1 µM value for this compound: Cc1nn(C)c(C)c1-c1c[nH]c2ncc(-c3ccc(CN4CCN(C)CC4)cc3)cc12 [Compound 7ai]
OUT: 52.5

IN: Indicate the recorded remaining activity at 0.1 µM value for this compound: CN1CCN(Cc2ccc(-c3cnc4[nH]cc(-c5ccncc5)c4c3)cc2)CC1 [Compound 7n]
OUT: 23.6

IN: Indicate the recorded remaining activity at 0.1 µM value for this compound: COc1ccccc1-c1c[nH]c2ncc(-c3ccc(CN4CCN(C)CC4)cc3)cc12 [Compound 7at]
OUT: 90.9

IN: Indicate the recorded remaining activity at 0.1 µM value for this compound: CN1CCN(Cc2ccc(-c3cnc4[nH]cc(-c5cnn(Cc6ccccc6)c5)c4c3)cc2)CC1 [Compound 7ah]
OUT: 4.24
